Collected inhibition at 1 µM values appear next to each entry.
Tested system: γ-secretase (Homo sapiens)
Experimental details: Screening for γ-secretase-modulating activity in SKNBE2 cells carrying APP 695 wild type (assay of Citron et al 1997)
Assay type: cell-based
Condition summary: SKNBE2, @ 1 uM; SKNBE2 cells carrying the APP 695 wild type

>  <Compound>
CCC(CC)N1CCCC(c2cc(-c3ccc(C(F)(F)F)cc3)cc(C(CC(C)C)C(=O)O)c2)C1 (stereo not shown)

>  <Tested system>
γ-secretase (Homo sapiens)

>  <inhibition at 1 µM>
22%

$$$$
>  <Compound>
CC(C)CCCN1CCC(c2cc(-c3ccc(C(F)(F)F)cc3)cc(C(CC(C)C)C(=O)O)c2)CC1 (stereo not shown)

>  <Tested system>
γ-secretase (Homo sapiens)

>  <inhibition at 1 µM>
36%

$$$$
>  <Compound>
CC(C)CCN1CCCCC1c1cc(-c2ccc(C(F)(F)F)cc2)cc(C(CC(C)C)C(=O)O)c1 (stereo not shown)

>  <Tested system>
γ-secretase (Homo sapiens)

>  <inhibition at 1 µM>
34%

$$$$
>  <Compound>
CC(C)C[C@@H](C(=O)O)c1cc(-c2ccc(C(F)(F)F)cc2)cc([C@@H]2CC[C@H](C(F)(F)F)NC2)c1 (relative stereo)

>  <Tested system>
γ-secretase (Homo sapiens)

>  <inhibition at 1 µM>
8%

$$$$
